Source of measurements: patent US9255100B2

molecular target: N-terminally GST-tagged human full length recombinant Mps-1 kinase (Homo sapiens, UniProt P33981); construct: N-terminally GST-tagged human full length recombinant Mps-1 kinase; purchased Invitrogen, Karslruhe, Germany PV4071; assay: Mps-1 kinase assay (TR-FRET); assay type: biochemical; settings: Mps1 IC50 [nM], 10 μM ATP, 1 μM peptide substrate, 60 min at 22° C.
Sequence (P33981 whole entry): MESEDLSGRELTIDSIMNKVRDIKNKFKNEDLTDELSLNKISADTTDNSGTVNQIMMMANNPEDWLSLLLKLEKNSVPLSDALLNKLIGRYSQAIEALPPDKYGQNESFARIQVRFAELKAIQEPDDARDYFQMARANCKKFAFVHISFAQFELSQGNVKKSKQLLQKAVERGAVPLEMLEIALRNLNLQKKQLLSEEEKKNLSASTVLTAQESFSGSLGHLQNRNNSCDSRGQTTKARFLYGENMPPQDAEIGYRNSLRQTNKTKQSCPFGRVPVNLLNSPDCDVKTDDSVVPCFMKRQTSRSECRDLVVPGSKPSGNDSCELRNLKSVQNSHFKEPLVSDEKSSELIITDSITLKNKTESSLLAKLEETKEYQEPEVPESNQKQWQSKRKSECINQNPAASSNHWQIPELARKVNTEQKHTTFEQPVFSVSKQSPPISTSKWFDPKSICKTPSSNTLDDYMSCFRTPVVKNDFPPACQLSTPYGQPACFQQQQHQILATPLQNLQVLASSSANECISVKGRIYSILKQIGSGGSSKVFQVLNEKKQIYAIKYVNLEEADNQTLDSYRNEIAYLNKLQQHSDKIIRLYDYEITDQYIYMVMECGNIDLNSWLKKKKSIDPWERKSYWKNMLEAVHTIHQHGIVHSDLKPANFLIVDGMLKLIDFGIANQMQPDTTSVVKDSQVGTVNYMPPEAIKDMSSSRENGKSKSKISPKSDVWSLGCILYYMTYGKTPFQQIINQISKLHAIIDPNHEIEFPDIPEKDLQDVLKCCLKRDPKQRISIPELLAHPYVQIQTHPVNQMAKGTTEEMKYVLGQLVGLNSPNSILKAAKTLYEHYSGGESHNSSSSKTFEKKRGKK
# if measured IC50 < 1 nM: true  # else: false

[
  {
    "COMPOUND": "Cc1cc(-c2cnc3c(NCC4CN(C)CCO4)cc(-c4ccc(F)cc4)nn23)ccc1C(=O)NC1CC1 (racemic) [Example 229]",
    "LABEL_CLASS": "false"
  },
  {
    "COMPOUND": "COc1ccc(Oc2cc(NCCC(F)(F)F)c3ncc(-c4ccc(C(=O)NC5CC5)c(C)c4)n3n2)cc1F [Example 475]",
    "LABEL_CLASS": "true"
  },
  {
    "COMPOUND": "Cn1nccc1-c1cc(NCCC(F)(F)F)c2ncc(-c3ccc(C(=S)NC4CC4)cc3)n2n1 [Example 45]",
    "LABEL_CLASS": "false"
  },
  {
    "COMPOUND": "COc1ccc(Nc2cc(NCCC(F)(F)F)c3ncc(-c4ccc(C(=O)NC5CC5)c(C)c4)n3n2)cn1 [Example 429]",
    "LABEL_CLASS": "true"
  },
  {
    "COMPOUND": "COc1ccc(C)c(Nc2cc(NCC(C)(C)O)c3ncc(-c4ccc(C(=O)NC5CC5)c(C)c4)n3n2)c1 [Example 349]",
    "LABEL_CLASS": "true"
  },
  {
    "COMPOUND": "Cc1cc(-c2cnc3c(NCC4CCS(=O)(=O)CC4)cc(Sc4cccc(F)c4)nn23)ccc1C(=O)NC1CC1 [Example 301]",
    "LABEL_CLASS": "true"
  },
  {
    "COMPOUND": "CC(C)CNc1cc(-c2ccc(S(C)(=O)=O)cc2)nn2c(-c3ccc(C(=O)NC4CC4)cc3)cnc12 [Example 142]",
    "LABEL_CLASS": "false"
  }
]
